testMethodNotes: Human HepG2 cell viability assay in 384 well format
Type: toxicity, cell-based
Parameters: dose 125 nL, time 70.5 hour; concentration not given beside the values
runParameters: HepG2 cells, read-out: Inhibition
Below is a list of entries, each paired with its recorded cytotoxicity at 70.5 h value.
I only need the number, in %, no unit after it.

Known cytotoxicity at 70.5 h results, listed for orientation:
>>> measurement("NC(=O)c1ccc(CN2CCCC(O)C2)cc1 (centres undefined)")
-3.47
>>> measurement("O=C(NCC[S+]([O-])Cc1ccccc1)c1ccc2[nH]c(=O)[nH]c2c1 (centres undefined)")
-3.54
>>> measurement("Cc1cc(CN2CC[C@H]3C[C@H](C(=O)Nc4cccnc4C)O[C@@H]3C2)no1")
12.4
>>> measurement("CS(=O)(=O)N1CCC2(CC1)CC(NCC1CC1)c1ccccc12 (centres undefined)")
-7.3
>>> measurement("c1ccc(Cc2noc(CN3CCCC3C3CCCCC3)n2)cc1 (centres undefined)")
16.5

In the following, a different molecule is considered.
Ask | Endpoint output: cytotoxicity at 70.5 h of Cc1noc(CNc2ccccc2N2CCCCC2)n1 . Value?
Reply | -2.98
